Target: Human Cereblon WT GST-tagged protein (Homo sapiens, UniProt Q96SW2)
Sequence (Q96SW2 whole entry): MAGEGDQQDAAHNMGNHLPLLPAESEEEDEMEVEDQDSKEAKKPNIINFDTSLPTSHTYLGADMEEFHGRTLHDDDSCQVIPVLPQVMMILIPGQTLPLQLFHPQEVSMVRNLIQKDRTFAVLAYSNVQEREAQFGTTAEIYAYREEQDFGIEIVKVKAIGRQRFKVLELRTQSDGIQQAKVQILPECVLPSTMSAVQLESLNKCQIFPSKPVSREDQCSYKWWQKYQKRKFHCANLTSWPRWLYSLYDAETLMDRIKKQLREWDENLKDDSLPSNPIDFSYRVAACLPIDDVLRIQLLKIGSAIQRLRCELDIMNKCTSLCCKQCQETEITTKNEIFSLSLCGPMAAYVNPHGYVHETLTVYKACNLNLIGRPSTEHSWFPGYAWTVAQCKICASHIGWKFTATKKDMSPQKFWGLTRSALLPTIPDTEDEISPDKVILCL
pIC50: −log10 of the molar value.
Parameter: pIC50

In plain terms, C/C(NC1CCC(=O)NC1=O)=C1/C(=O)Nc2ccc(Br)cc21 (stereo not shown) has a documented pIC50 of ≥ 5.70

Data provenance is patent US20260191970A1.
